testedOn: MAGL (Mus musculus)
Construct: Proteomes (mouse brain membrane fraction or cell lysates)
Sequence (O35678 whole entry): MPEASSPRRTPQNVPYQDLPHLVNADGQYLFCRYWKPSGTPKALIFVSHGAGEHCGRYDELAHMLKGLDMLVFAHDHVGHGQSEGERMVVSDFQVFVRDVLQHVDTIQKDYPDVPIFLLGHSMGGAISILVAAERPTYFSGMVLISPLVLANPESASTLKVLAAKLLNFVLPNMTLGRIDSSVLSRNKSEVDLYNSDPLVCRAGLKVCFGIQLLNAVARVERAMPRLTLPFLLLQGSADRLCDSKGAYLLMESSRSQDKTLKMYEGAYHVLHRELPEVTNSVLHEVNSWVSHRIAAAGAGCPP
testSummary: In vitro competitive activity-based protein profiling (mouse), MAGL gel band
particulars: mouse
endpointName: IC50

Past entries and their recorded results:
| molecule | IC50 |
| --- | --- |
| CC(=O)Nc1ccn(C(=O)N2CCN(Cc3ccc(Cl)cc3N3CCCCC3)CC2)n1 [Example 50] | ≤ 100 nM |
| CS(=O)(=O)Nc1ccn(C(=O)N2CCC3(CCCN3Cc3ccc(Cl)cc3N3C[C@H]4CC[C@@H](C3)O4)CC2)n1 [Example 139] | 100 to 1000 nM |
| CC(=O)Nc1ccn(C(=O)N2CCC3(CCCN3Cc3cc(OC4CCN(C5CC5)CC4)cc(C(F)(F)F)c3)CC2)n1 [Example 82] | ≤ 100 nM |
| CS(=O)(=O)Nc1ccn(C(=O)N2CCN(Cc3ccc(C(F)(F)F)cc3N3CCC(O)CC3)CC2)n1 [Example 252] | ≤ 100 nM |
| CCN1CCN(c2cc(C(F)(F)F)ccc2CN2CCCC23CCN(C(=O)n2ccc(NC(C)=O)n2)CC3)CC1 [Example 31] | 100 to 1000 nM |
| CC(=O)Nc1ccn(C(=O)N2CCN(Cc3ccc(C(F)(F)F)cc3N3CCC(F)CC3)CC2)n1 [Example 4] | ≤ 100 nM |

IC50 for CC(=O)Nc1ccn(C(=O)N2CCN(Cc3cc(OC4CCS(=O)(=O)CC4)cc(C(F)(F)F)c3)CC2)n1 [Example 78] ?
≤ 100 nM

IC50 for CC(=O)Nc1ccn(C(=O)N2CCN(Cc3ccc(C#N)cc3-c3nnn[nH]3)CC2)n1 [Example 115] ?
100 to 1000 nM

IC50 for CS(=O)(=O)Nc1ccn(C(=O)N2CCC3(CCCN3Cc3cccc(N4CCCC4)c3Cl)CC2)n1 [Example 141] ?
100 to 1000 nM

IC50 for CC(=O)Nc1ccn(C(=O)N2CCN(Cc3ccc(C(F)(F)F)cc3N3CC4CCC(C3)O4)CC2)n1 [Example 40] ?
≤ 100 nM

IC50 for Cc1ccc(CN2CCN(C(=O)n3ccc(NS(C)(=O)=O)n3)CC2)c(N2CCCC2)c1 [Example 137] ?
100 to 1000 nM

IC50 for CC(=O)Nc1ccn(C(=O)N2CCN(Cc3ccc(Cl)cc3N3CCN(C(C)=O)CC3)CC2)n1 [Example 53] ?
≤ 100 nM

IC50 for CC(=O)N(C)c1ccn(C(=O)N2CCN(Cc3ccc(C(F)(F)F)cc3N3CCCC3)CC2)n1 [Example 2] ?
100 to 1000 nM

IC50 for CC(=O)Nc1ccn(C(=O)N2CCN(Cc3cc(Oc4nc5ccccc5s4)cc(C(F)(F)F)c3)CC2)n1 [Example 76] ?
≤ 100 nM

IC50 for CC(=O)Nc1ccn(C(=O)N2CCC3(CCCN3Cc3ccc4c(c3)COC4)CC2)n1 [Example 97] ?
100 to 1000 nM

---

testedOn: MAGL (Mus musculus)
Construct: Proteomes (mouse brain membrane fraction or cell lysates)
testSummary: In vitro competitive activity-based protein profiling (mouse), MAGL gel band
particulars: mouse
endpointName: IC50

Past entries and their recorded results:
| compound | testedOn | IC50 |
| --- | --- | --- |
| CC(=O)Nc1ccn(C(=O)N2CCC3(CCCN3Cc3ccc(C(F)(F)F)c(N4CCOCC4)c3)CC2)n1 [Example 105] | MAGL (Mus musculus) | ≤ 100 nM |
| CC(=O)Nc1ccn(C(=O)N2CCC3(CCCN3Cc3ccc(C(F)(F)F)c(N4CCCC4)c3)CC2)n1 [Example 106] | MAGL (Mus musculus) | ≤ 100 nM |
| CC(=O)Nc1ccn(C(=O)N2CCN(Cc3ccc(C(F)(F)F)cc3N3CCC(C(C)(C)O)CC3)CC2)n1 [Example 266] | MAGL (Mus musculus) | ≤ 100 nM |
| CC(=O)Nc1ccn(C(=O)N2CCC3(CCCN3Cc3ccc(Cl)cc3N3CCN(C4CC4)CC3)CC2)n1 [Example 13] | MAGL (Mus musculus) | 100 to 1000 nM |

IC50 for CC(=O)Nc1ccn(C(=O)N2CCN(Cc3ccc(C(F)(F)F)cc3N3CCN(C4CC4)CC3)CC2)n1 [Example 47] ?
≤ 100 nM

IC50 for CC(=O)Nc1ccn(C(=O)N2CCC3(CCCN3Cc3cc(Cl)cc(N4C5CCC4COC5)c3)CC2)n1 [Example 64] ?
≤ 100 nM

IC50 for CC(=O)Nc1ccn(C(=O)N2CCC3(CCCN3Cc3cc(Oc4cncnc4)cc(C(F)(F)F)c3)CC2)n1 [Example 84] ?
≤ 100 nM

IC50 for CC(=O)Nc1ccn(C(=O)N2CCN(Cc3ccc(Cl)cc3N3CCN(S(C)(=O)=O)CC3)CC2)n1 [Example 52] ?
≤ 100 nM

IC50 for CC(=O)Nc1ccn(C(=O)N2CCC3(CCCN3Cc3cc(N4CCCC4)cc(C(F)(F)F)c3)CC2)n1 [Example 61] ?
≤ 100 nM

---

testedOn: FAAH (Mus musculus)
Construct: Proteomes (mouse brain membrane fraction or cell lysates); from tissue; host or cells: mouse brain membrane fraction (or cell lysates)
Sequence (O08914 1-579): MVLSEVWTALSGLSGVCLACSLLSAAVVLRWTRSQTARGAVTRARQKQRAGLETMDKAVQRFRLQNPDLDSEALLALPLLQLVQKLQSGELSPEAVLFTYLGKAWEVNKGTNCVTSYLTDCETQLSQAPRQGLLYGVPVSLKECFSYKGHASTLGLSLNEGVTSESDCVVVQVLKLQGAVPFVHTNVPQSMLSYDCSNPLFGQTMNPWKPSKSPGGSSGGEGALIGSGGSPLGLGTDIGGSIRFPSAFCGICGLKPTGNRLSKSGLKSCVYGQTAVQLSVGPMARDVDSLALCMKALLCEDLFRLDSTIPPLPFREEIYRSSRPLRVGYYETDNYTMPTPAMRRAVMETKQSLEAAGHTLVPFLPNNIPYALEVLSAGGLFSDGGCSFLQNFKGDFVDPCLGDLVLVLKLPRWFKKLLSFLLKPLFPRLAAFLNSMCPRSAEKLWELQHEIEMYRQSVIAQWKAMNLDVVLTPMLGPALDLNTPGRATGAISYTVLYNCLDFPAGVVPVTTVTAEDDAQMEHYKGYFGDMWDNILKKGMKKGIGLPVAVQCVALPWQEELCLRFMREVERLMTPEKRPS
testSummary: In vitro competitive activity-based protein profiling (mouse), FAAH gel band
Type: biochemical
particulars: read-out: FAAH % inh. 1 μM
Recorded measurements of inhibition at 1 µM, one per entry

Past entries and their recorded results:
| molecule | inhibition at 1 µM |
| --- | --- |
| CC(=O)Nc1ccn(C(=O)N2CCC3(CCCN3Cc3ccc(N4CCOCC4)c(C(F)(F)F)c3)CC2)n1 [Example 101] | 0 to 25% |
| CC(=O)Nc1ccn(C(=O)N2CCC3(CCCN3Cc3ccc(C(F)(F)F)cc3OC3CCS(=O)(=O)CC3)CC2)n1 [Example 87] | 25 to 50% |
| CS(=O)(=O)Nc1ccn(C(=O)N2CCN(Cc3ccc(Cl)cc3N3CCOCC3)CC2)n1 [Example 135] | 0 to 25% |
| O=C(CO)Nc1ccn(C(=O)N2CCN(Cc3cccc(Oc4ccccc4)c3)CC2)n1 [Example 92] | ≥ 75% |
| CS(=O)(=O)Nc1ccn(C(=O)N2CCC3(CCCN3Cc3ccc(Cl)cc3N3CCCC3)CC2)n1 [Example 131] | 0 to 25% |

inhibition at 1 µM for CS(=O)(=O)Nc1ccn(C(=O)N2CCN(Cc3ccc(C(F)(F)F)cc3-c3ccc(C(F)(F)F)nc3)CC2)n1 [Example 212] ?
0 to 25%

inhibition at 1 µM for CC(=O)Nc1ccn(C(=O)N2CCC3(CCCN3Cc3ccc4[nH]cnc4c3)CC2)n1 [Example 253] ?
0 to 25%

inhibition at 1 µM for CS(=O)(=O)Nc1ccn(C(=O)N2CCC3(CCCN3Cc3cc(Cl)cc(N4CCCC4)c3)CC2)n1 [Example 193] ?
0 to 25%

inhibition at 1 µM for CS(=O)(=O)Nc1ccn(C(=O)N2CCN(Cc3ccc(N4CCCC4)c(C(F)(F)F)c3)CC2)n1 [Example 152] ?
0 to 25%

inhibition at 1 µM for CC(=O)N1CCN(c2cc(C(F)(F)F)ccc2CN2CCN(C(=O)n3ccc(NS(C)(=O)=O)n3)CC2)CC1 [Example 174] ?
0 to 25%

inhibition at 1 µM for CC(=O)Nc1ccn(C(=O)N2CCC3(CCCN3Cc3ccc(C(F)(F)F)c(C(=O)O)c3)CC2)n1 [Example 108] ?
0 to 25%

inhibition at 1 µM for CS(=O)(=O)Nc1ccn(C(=O)N2CCN(Cc3cc(N4CCOCC4)cc(C(F)(F)F)c3)CC2)n1 [Example 155] ?
0 to 25%

inhibition at 1 µM for CC(=O)Nc1ccn(C(=O)N2CCC3(CCCN3Cc3ccc(C(F)(F)F)c(C(N)=O)c3)CC2)n1 [Example 107] ?
0 to 25%

inhibition at 1 µM for CS(=O)(=O)Nc1ccn(C(=O)N2CCN(Cc3ccc(C(F)(F)F)c(N4CCC(C(N)=O)CC4)c3)CC2)n1 [Example 291] ?
0 to 25%

inhibition at 1 µM for CCN1CCN(c2cc(Cl)ccc2CN2CCN(C(=O)n3ccc(NC(C)=O)n3)CC2)CC1 [Example 59] ?
0 to 25%
